All figures here come from patent US10577349B2.

# Test system: HCV cap-dependent translation
# Run description: In vitro translation assay, FF-HCV-Ren construct, cap-dependent (FF luciferase)
pIC50: −log10 of the molar value.
Reported endpoint: pIC50

Compound	Test system	Recorded result
CN(C)c1ccc(/C=C/C(=O)c2c(-c3ccccc3)c3cc(Cl)ccc3[nH]c2=O)cc1	HCV cap-dependent translation	< 4.70
N#Cc1ccc(-c2c(C(=O)/C=C/c3ccccn3)c(=O)[nH]c3ccc(Cl)cc23)cc1	HCV cap-dependent translation	4.70 to 5.00
Nc1ccc2[nH]c(=O)c(C(=O)/C=C/c3nc4ccccc4[nH]3)c(-c3ccccc3)c2c1	HCV cap-dependent translation	4.70 to 5.00
Cn1c(/C=C/C(=O)c2c(-c3ccccc3)c3cc(Cl)ccc3[nH]c2=O)cc2ccccc21	HCV cap-dependent translation	4.70 to 5.00
COc1ccc2[nH]c(/C=C/C(=O)c3c(-c4ccccc4)c4cc(Cl)ccc4[nH]c3=O)nc2c1	HCV cap-dependent translation	5.00 to 5.70
Cc1ccc2[nH]c(/C=C/C(=O)c3c(-c4ccccc4)c4cc(Cl)cnc4[nH]c3=O)nc2c1	HCV cap-dependent translation	< 4.70
O=C(/C=C/c1nc2ccccc2[nH]1)c1c(-c2ccc(OC(F)(F)F)cc2)c2cc(Cl)ccc2[nH]c1=O	HCV cap-dependent translation	5.00 to 5.70
O=C(/C=C/c1cncc(C(F)(F)F)c1)c1c(-c2ccccc2)c2cc(Cl)ccc2[nH]c1=O	HCV cap-dependent translation	5.00 to 5.70
O=C(/C=C/c1cncnc1)c1c(-c2ccccc2)c2cc(Cl)ccc2[nH]c1=O	HCV cap-dependent translation	5.00 to 5.70
O=C(/C=C/c1ccccn1)c1c(-c2cncc(Br)c2)c2cc(Cl)ccc2[nH]c1=O	HCV cap-dependent translation	4.70 to 5.00
COc1ccc2[nH]c(=O)c(C(=O)/C=C/c3nc4ccccc4[nH]3)c(-c3ccccc3)c2c1	HCV cap-dependent translation	< 4.70
O=C(/C(Br)=C/c1cncc(F)c1)c1c(-c2ccccc2)c2cc(Cl)ccc2[nH]c1=O (single isomer, unassigned)	HCV cap-dependent translation	5.00 to 5.70
O=C(/C=C/c1ccc(C(F)(F)F)cc1)c1c(-c2ccccc2)c2cc(Cl)ccc2[nH]c1=O	HCV cap-dependent translation	4.70 to 5.00
Cc1ccc(-c2c(C(=O)/C=C/c3ccccn3)c(=O)[nH]c3ccc(Cl)cc23)cc1	HCV cap-dependent translation	5.00 to 5.70
COCc1cncc(/C=C/C(=O)c2c(-c3ccccc3)c3cc(Cl)ccc3[nH]c2=O)c1	HCV cap-dependent translation	5.00 to 5.70
O=C(/C=C/c1nc2ccccc2[nH]1)c1c(-c2ccc(C(F)(F)F)cc2)c2cc(Cl)ccc2[nH]c1=O	HCV cap-dependent translation	5.00 to 5.70
N#Cc1ccc(-c2c(C(=O)/C=C/c3cncc(F)c3)c(=O)[nH]c3ccc(Cl)cc23)cc1	HCV cap-dependent translation	5.00 to 5.70
N#Cc1cncc(-c2c(C(=O)/C=C/c3ccccn3)c(=O)[nH]c3ccc(Cl)cc23)c1	HCV cap-dependent translation	< 4.70
N#Cc1cncc(-c2c(C(=O)/C=C/c3cncc(F)c3)c(=O)[nH]c3ccc(Cl)cc23)c1	HCV cap-dependent translation	4.70 to 5.00
CCn1c(/C=C/C(=O)c2c(-c3ccccc3)c3cc(Cl)ccc3n(CC)c2=O)nc2ccccc21	HCV cap-dependent translation	4.70 to 5.00
Nc1ccc2[nH]c(=O)c(C(=O)CCc3nc4ccccc4[nH]3)c(-c3ccccc3)c2c1	HCV cap-dependent translation	< 4.70
O=C(/C=C/c1nc2ccccc2[nH]1)c1c(-c2cccnc2)c2cc(Cl)ccc2[nH]c1=O	HCV cap-dependent translation	4.70 to 5.00
N#Cc1cncc(/C=C/C(=O)c2c(-c3ccccc3)c3cc(Cl)ccc3[nH]c2=O)c1	HCV cap-dependent translation	5.00 to 5.70
COCCn1c(/C=C/C(=O)c2c(-c3ccccc3)c3cc(Cl)ccc3[nH]c2=O)nc2ccccc21	HCV cap-dependent translation	5.00 to 5.70
O=C(/C=C/c1nc2ccccc2[nH]1)c1c(-c2ccccc2)c2cnccc2[nH]c1=O	HCV cap-dependent translation	4.70 to 5.00
O=C(/C=C/c1cncc(Cl)c1)c1c(-c2ccccc2)c2cc(Cl)ccc2[nH]c1=O	HCV cap-dependent translation	5.00 to 5.70
O=C(/C=C/c1nc2ccccc2[nH]1)c1c(-c2ccccc2)c2cc([N+](=O)[O-])ccc2[nH]c1=O	HCV cap-dependent translation	4.70 to 5.00
O=C(/C=C/c1cccs1)c1c(-c2ccccc2)c2cc(Cl)ccc2[nH]c1=O	HCV cap-dependent translation	4.70 to 5.00
O=C(/C=C/c1c(F)cccc1F)c1c(-c2ccccc2)c2cc(Cl)ccc2[nH]c1=O	HCV cap-dependent translation	5.00 to 5.70
O=C(/C=C/c1ccccn1)c1c(-c2ccc(F)cc2)c2cc(Cl)ccc2[nH]c1=O	HCV cap-dependent translation	5.00 to 5.70
